- Test system: aqueous buffer solubility, pH 5.0/6.2/7.4
- assay notes: compound solubility, pH 5.0, 6.2, 7.4 – biophysical, set 2, ADME assay (AID 624323)
- settings: measured here: solubility at pH 5.0; at 100 µM; stronger effect = higher value
For each entry below, report its solubility value.
Note: unit µg/mL is implicit; provide only the numeric part.

Form field solubility, entry CN(C)C1=C(Cl)C(=O)N(c2ccc(Cl)c(Cl)c2)C1=O : 0.06

The compound identified as COc1ccc(OC)c(-c2nnc3n2N=C(c2ccc(OC)c(OC)c2)CS3)c1 registered its solubility at 28.2

Measured solubility of Cc1ccc(S(=O)(=O)n2c(N)nc3ccccc32)cc1 : 2.3

For reference, reported solubility for O=c1c2ccccc2[se]n1-c1ccccc1 stands at 5

The compound O=c1c(O)c(-c2cc(O)c(O)c(O)c2)oc2cc(O)cc(O)c12 showed solubility equal to 3.2

Lab note: CS(=O)(=O)c1ccc(C(=O)OCC(=O)NC23CC4CC(CC(C4)C2)C3)cc1[N+](=O)[O-] gave solubility of 1.8

Item: N#C/C(=C\c1ccc([N+](=O)[O-])o1)c1nc2ccccc2[nH]1 | solubility: 0.08

Kindly note the recorded solubility for COc1ccccc1N(/N=C1\Sc2ccccc2C1=O)C(C)=O , which is 2.4

Please fill in: solubility reported for O=C1CCCC2=C1C1(CCCC1)N=C(Nc1nc3ccccc3o1)N2 = 0.07

Just so you know, measured solubility for CC(=O)c1ccc(N2CCN(S(=O)(=O)c3ccc4c(c3)CC(=O)N4)CC2)cc1 came out at 3.2

Sample COc1ccc(C2CC(c3ccccc3)=NN2c2ccc(S(N)(=O)=O)cc2)cc1 (stereo not drawn) ; solubility observed: 0.06

Summary for this compound, CCOc1ccc(-c2nc(-c3ccncc3)no2)cc1OCC : solubility is 1.1

solubility reading for CCOc1ccc(NC(=S)N2CCC(C(O)(c3ccccc3)c3ccccc3)CC2)cc1 : 1.1
